# systemUnderTest: T1, Human EphA2 (human, UniProt P29317 24-976)
# T1 construct: Endogenous EphA2 in fresh frozen human tumor tissue sections, not a recombinant protein; also called ephrin receptor A2; hEphA2
# methodSummary: IHC/IF on frozen human tumor tissue: CRC

binder: AB-009812 (antibody, mouse IgG2a, V domains shown, Made on a mouse IgG2a framework) VH: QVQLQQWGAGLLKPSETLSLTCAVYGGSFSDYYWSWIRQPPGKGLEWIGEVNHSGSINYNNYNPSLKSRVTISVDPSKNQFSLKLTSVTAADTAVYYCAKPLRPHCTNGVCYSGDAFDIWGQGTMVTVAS VL: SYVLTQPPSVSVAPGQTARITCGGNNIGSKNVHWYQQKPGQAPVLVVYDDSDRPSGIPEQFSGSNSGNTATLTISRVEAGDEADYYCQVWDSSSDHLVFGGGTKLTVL
IHC score: 1
//
binder: AB-009816 (antibody, mouse IgG2a, V domains shown, Made on a mouse IgG2a framework) VH: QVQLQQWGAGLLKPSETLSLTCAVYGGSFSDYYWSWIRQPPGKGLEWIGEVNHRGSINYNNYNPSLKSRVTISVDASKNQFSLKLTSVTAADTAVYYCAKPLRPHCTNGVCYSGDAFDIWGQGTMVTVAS VL: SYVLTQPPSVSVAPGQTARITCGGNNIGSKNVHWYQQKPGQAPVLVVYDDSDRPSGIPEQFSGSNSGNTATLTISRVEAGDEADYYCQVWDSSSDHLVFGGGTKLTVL
IHC score: 1
//
binder: AB-009813 (antibody, mouse IgG2a, V domains shown, Made on a mouse IgG2a framework) VH: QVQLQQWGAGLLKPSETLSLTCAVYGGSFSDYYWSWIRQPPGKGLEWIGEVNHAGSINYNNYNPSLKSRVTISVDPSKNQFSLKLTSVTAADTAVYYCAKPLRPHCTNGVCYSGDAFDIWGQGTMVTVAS VL: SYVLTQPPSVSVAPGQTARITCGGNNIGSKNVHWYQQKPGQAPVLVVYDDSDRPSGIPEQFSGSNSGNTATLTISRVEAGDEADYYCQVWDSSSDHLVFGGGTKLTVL
IHC score: 1
